system: HeLa Kyoto; experiment: thermal stability score vs G1/S (z-score of summed log2 fold changes over temperatures); higher = more thermally stable than in G1/S; conditions: cell cycle stage: mitosis
measure: thermal stability score
One number for each entry.

q: Reported thermal stability score, sequence MFGPAKGRHFGVHPAPGFPGGVSQQAAGTKAGPAGAWPVGSRTDTMWRLRCKAKDGTHVLQGLSSRTRVRELQGQIAAITGIAPGGQRILVGYPPECLDLSNGDTILEDLPIQSGDMLIIEEDQTRPRSSPAFTKRGASSYVRETLPVLTRTVVPADNSCLFTSVYYVVEGGVLNPACAPEMRRLIAQIVASDPDFYSEAILGKTNQEYCDWIKRDDTWGGAIEISILSKFYQCEICVVDTQTVRIDRFGEDAGYTKRVLLIYDGIHYDPLQRNFPDPDTPPLTIFSSNDDIVLVQALELADEARRRRQFTDVNRFTLRCMVCQKGLTGQAEAREHAKETGHTNFGEV [YOD1] : ____
a: 1.06

---

system: HeLa Kyoto; assay: thermal stability score vs G1/S (z-score of summed log2 fold changes over temperatures); higher = more thermally stable than in G1/S; settings: cell cycle stage: early G1 (4.5 h after nocodazole release);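 note: synchronized HeLa Kyoto cells, proteins quantified by TMT10plex mass spectrometry, three biological replicates, mitosis taken 0.5 h after nocodazole release, G1/S directly after double thymidine block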
Decide by thermal stability score: equal to or exceeding -0.09 means rule met, less means rule not met.

Consider the worked cases shown below.
MAPLLLQLAVLGAALAAAALVLISIVAFTTATKMPALHRHEEEKFFLNAKGQKETLPSIWDSPTKQLSVVVPSYNEEKRLPVMMDEALSYLEKRQKRDPAFTYEVIVVDDGSKDQTSKVAFKYCQKYGSDKVRVITLVKNRGKGGAIRMGIFSSRGEKILMADADGATKFPDVEKLEKGLNDLQPWPNQMAIACGSRAHLEKESIAQRSYFRTLLMYGFHFLVWFLCVKGIRDTQCGFKLFTREAASRTFSSLHVERWAFDVELLYIAQFFKIPIAEIAVNWTEIEGSKLVPFWSWLQMGKDLLFIRLRYLTGAWRLEQTRKMN [ALG5] :: rule not met
MYTFVVRDENSSVYAEVSRLLLATGHWKRLRRDNPRFNLMLGERNRLPFGRLGHEPGLVQLVNYYRGADKLCRKASLVKLIKTSPELAESCTWFPESYVIYPTNLKTPVAPAQNGIQPPISNSRTDEREFFLASYNRKKEDGEGNVWIAKSSAGAKGEGILISSEASELLDFIDNQGQVHVIQKYLEHPLLLEPGHRKFDIRSWVLVDHQYNIYLYREGVLRTASEPYHVDNFQDKTCHLTNHCIQKEYSKNYGKYEEGNEMFFKEFNQYLTSALNITLESSILLQIKHIIRNCLLSVEPAISTKHLPYQSFQLFGFDFMVDEELKVWLIEVNGAPACAQKLYAELCQGIVDIAISSVFPPPDVEQPQTQPAAFIKL [TTL] :: rule met
MASPQLCRALVSAQWVAEALRAPRAGQPLQLLDASWYLPKLGRDARREFEERHIPGAAFFDIDQCSDRTSPYDHMLPGAEHFAEYAGRLGVGAATHVVIYDASDQGLYSAPRVWWMFRAFGHHAVSLLDGGLRHWLRQNLPLSSGKSQPAPAEFRAQLDPAFIKTYEDIKENLESRRFQVVDSRATGRFRGTEPEPRDGIEPGHIPGTVNIPFTDFLSQEGLEKSPEEIRHLFQEKKVDLSKPLVATCGSGVTACHVALGAYLCGKPDVPIYDGSWVEWYMRARPEDVISEGRGKTH [MPST] :: rule met

Moving on to the next sequence.
q: Check this sequence for thermal stability score at or above -0.09: MDGEEKTYGGCEGPDAMYVKLISSDGHEFIVKREHALTSGTIKAMLSGPGQFAENETNEVNFREIPSHVLSKVCMYFTYKVRYTNSSTEIPEFPIAPEIALELLMAANFLDC [TCEB1]
a: rule not met
